experiment: chemical genetic growth profiling, strain panel (AID 1159580);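 note: tested at 20 µM; growth read once vehicle control cultures reached saturation at 30 °C; 1 = growth at the plate median or of vehicle wells; lower values mean less growth of the strain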; conditions: S. cerevisiae deletion strains, growth OD, locus YNL067W, strain RPL9B, hits give low values
Hit rate of the full screen: of about 5,500 compounds, about 2,000 (36%) were called active. Another 18% or so got no clear call; they are omitted. The list shows a part of the results.
# Lookup of reported normalized growth keyed by entry
Give the figure only, with no unit attached.

A selection of reference data follows.
compound: COc1cc(OC)c2c(=O)c(-c3ccccc3)c(C)oc2c1OC
test-value: 1.02
//
compound: C=C[C@](C)(O)CCC=C(C)C
test-value: 1.01

Here is the next item to consider.
Can you look up the measured normalized growth of CC(C)(C)NCC(O)c1ccccc1Cl (stereo not drawn) for me?
1.02

---

experiment: chemical genetic growth profiling, strain panel (AID 1159580); details: S. cerevisiae deletion strains, growth OD, locus YJL095W, strain BCK1 (second series), hits give low values
About 2,000 (36%) of roughly 5,500 compounds were called active. About 18% were inconclusive and are not listed. The list shows a part of the results.
normalized growth strictly less than 0.9 = Y. Otherwise N.

Known results for compounds:
compound: CC(=O)Nc1ccc(S(=O)(=O)c2ccc(NC(C)=O)cc2)cc1
answer-label: N

compound: NCCCC[C@H](N[C@@H](CCc1ccccc1)C(=O)O)C(=O)N1CCC[C@H]1C(=O)O
answer-label: N

compound: C=CC(C1=CC(=O)C(OC)=CC1=O)c1ccc(O)cc1 (stereo unspecified)
answer-label: N

compound: CC(C)NCC(O)c1ccc(O)c(O)c1 (stereo unspecified)
answer-label: N

compound: NCC(O)c1ccc(O)cc1 (stereo unspecified)
answer-label: N

Please check: normalized growth for CCCCC(CC)CN1CN(CC(CC)CCCC)CC(C)(N)C1 (stereo unspecified) , strictly under 0.9 or not?
Y

Repeat with "CC/C(=C(\c1ccccc1)c1ccc(OCCN(C)C)cc1)c1ccccc1"
Y

What would you report for "C=C[C@@H](C1=CC(=O)C(OC)=C(OC)C1=O)c1ccccc1" ?
Y

Next compound: "CN(C)CCOc1ccc(/C(=C(/CCCl)c2ccccc2)c2ccccc2)cc1"
Y

Please do the same for "CCCCC1=NC2(CCCC2)C(=O)N1Cc1ccc(-c2ccccc2-c2nn[nH]n2)cc1" as well.
N

---

experiment: chemical genetic growth profiling, strain panel (AID 1159580); conditions: S. cerevisiae deletion strains, growth OD, locus YML124C, strain tub3, hits give low values
Out of some 5,500 compounds screened, about 2,000 (36%) were called active. Roughly 18% stayed inconclusive and do not appear here. This is one part of the list.
Measured normalized growth by item
The answer should be written as a number, with no unit following it.

Reported normalized growth for CO[C@H]1/C=C/O[C@@]2(C)Oc3c(C)c(O)c4c(O)c(c(/C=N/N5CCN(C)CC5)c(O)c4c3C2=O)NC(=O)/C(C)=C\C=C\C(C)[C@H](O)[C@@H](C)[C@@H](O)[C@@H](C)[C@@H](OC(C)=O)[C@@H]1C (some centres undefined) : what is it?
1.03

What do you get for "CCOP(=S)(OCC)SCn1c(=O)oc2cc(Cl)ccc21" ?
0.991

Would you mind doing "NCCNC(=O)c1ccc(Cl)cc1" as well?
0.99

Now this one: "CN/C(=C\[N+](=O)[O-])NCCSCc1ccc(CN(C)C)o1"
0.991

Please give the result for CCCCC(CC)CN1CN(CC(CC)CCCC)CC(C)(N)C1 (centres undefined) too.
0.692

Now the same for C=CCC1(C(C)CCC)C(=O)N=C(S)NC1=O (centres undefined)
0.981

Please give the result for CCCC(C)C1(CC)C(=O)N=C(S)NC1=O (centres undefined) too.
0.113

Moving on to "CCC[C@H]1CC2=C(C[C@@H](CC)CC3=C1C(=O)OC3=O)C(=O)OC2=O"
1.01

Also need "CNC[C@@H](O)c1ccc(O)c(O)c1" , thanks.
0.983

---

test: chemical genetic growth profiling, strain panel (AID 1159580); details: S. cerevisiae deletion strains, growth OD, locus YBL105C, strain PKC1, hits give low values
About 2,000 (36%) of roughly 5,500 compounds were called active. Roughly 18% stayed inconclusive and do not appear here. The list shows a part of the results.
property-label: normalized growth
Form: value (number only, do not type unit).

mol: CSc1cc(-c2ccncc2)nc(-c2cccs2)c1
property-label: normalized growth
test-value: 0.964

# lookup: normalized growth of "O=C(c1ccc2ccccc2c1)N1CCN(c2ccnc3cc(Cl)ccc23)CC1"
1

Entry "NC(=Nc1ccc(F)cc1)SCc1c(Cl)cccc1Cl" please
0.99

Also check "CCCc1c(C(=O)Sc2ccccn2)cnn1-c1ccc(Cl)cc1"
0.962

Same question for "O=c1c(Cl)c(-n2cccn2)cnn1-c1ccc(Cl)cc1Cl" please.
0.948

# iterate: "CC(C)c1ccc(NC(=S)NC(=O)c2ccccc2)cc1"
0.952

Ok, now "O=C(NCCSCc1ccco1)Nc1cc(Cl)cc(Cl)c1"
0.96

Similarly, "O=C(NC(=O)c1c(F)cccc1Cl)OCc1ccc(Cl)cc1Cl" ?
0.981

// next record "Cc1c(C)c(C)c(CSC(N)=Nc2ccc(F)cc2)c(C)c1C"
0.997

Follow-up entry: "O=C(c1ccccc1)c1cc(Cl)ccc1NC(=S)Nc1ccc(F)cc1"
0.992

---

assay: chemical genetic growth profiling, strain panel (AID 1159580); details: S. cerevisiae deletion strains, growth OD, locus YJL129C, strain trk1
The whole screen tested about 5,500 compounds, of which about 2,000 (36%) were called active. Inconclusive results (about 18%) are left out. Rule as the data show it: active = normalized growth mostly below about 0.91 (no sharp cut-off); inconclusive = no clear call, values can overlap the other calls; inactive = mostly above about 0.92. The list shows a part of the results.
Answer with one of the outcomes given here: active, inactive

Example entries begin here.
compound: Oc1ccc(Cl)c2cccnc12
answer-label: active

compound: C/C=C/c1ccc2c(c1)OCO2
answer-label: inactive

Now examine the next entry.
Please indicate how the test categorized O=C1O[C@H](C(O)CO)C(O)=C1O (stereo partly drawn) .
inactive

---

experiment: chemical genetic growth profiling, strain panel (AID 1159580);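 note: tested at 20 µM; growth read once vehicle control cultures reached saturation at 30 °C; 1 = growth at the plate median or of vehicle wells; lower values mean less growth of the strain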; settings: S. cerevisiae deletion strains, growth OD, locus YKL085W, strain MDH1 (second series), hits give low values
Hit rate of the full screen: of about 5,500 compounds, about 2,000 (36%) were called active. Another 18% or so got no clear call; they are omitted. The list shows a part of the results.
property-label: normalized growth
# respond with the number and nothing more

mol: Nc1ncn([C@@H]2O[C@H](CO)[C@@H](O)[C@H]2O)c(=O)n1
normalized growth: 0.989
--
mol: CNc1ccccc1C(=O)O
normalized growth: 0.985
--
mol: CC(=O)Oc1ccc(Cl)c2cccnc12
normalized growth: 0.0554
--
mol: COC(C)(C)CCC[C@H](C)C/C=C/C(C)=C/C(=O)OC(C)C
normalized growth: 1

Let us examine a further case.
Returns the measured normalized growth for the input molecule. Input: "COc1ccc(C(Cl)=C(c2ccc(OC)cc2)c2ccc(OC)cc2)cc1"
0.98

---

Reported values of normalized growth for individual entries
assay: chemical genetic growth profiling, strain panel (AID 1159580);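 note: tested at 20 µM; growth read once vehicle control cultures reached saturation at 30 °C; 1 = growth at the plate median or of vehicle wells; lower values mean less growth of the strain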; conditions: S. cerevisiae deletion strains, growth OD, locus YBR231C, strain swc5, hits give low values
About 2,000 (36%) of roughly 5,500 compounds were called active. About 18% were inconclusive and are not listed. This is one part of the list.
Output spec: single numeric token, no unit.

compound: COc1cccc(/C=C/C(=O)O)c1C(C)C
normalized growth: 0.976
--
compound: CC(=O)/C(=C\c1ccccc1)CC(=O)O
normalized growth: 0.982
--
compound: Cc1c(Nc2ncccc2C(=O)O)cccc1C(F)(F)F
normalized growth: 1.01
--
compound: N[C@@H](Cc1ccc(O)c(O)c1)C(=O)O
normalized growth: 1
--
compound: CN[C@H](CC(=O)O)C(=O)O
normalized growth: 1.02

Requested read-out: normalized growth. Entry: C[C@H]1[C@H]2CCC3C4CC=C5C[C@@H](N(C)C)CC[C@]5(C)C4CC[C@@]32CN1C (stereo partly drawn)
0.972

Check "CN/C(=C\[N+](=O)[O-])NCCSCc1ccc(CN(C)C)o1" too.
0.977

Please do the same for CCC(Cc1c(I)cc(I)c(N)c1I)C(=O)O (stereo not drawn) as well.
0.977

---

experiment: chemical genetic growth profiling, strain panel (AID 1159580);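 note: tested at 20 µM; growth read once vehicle control cultures reached saturation at 30 °C; 1 = growth at the plate median or of vehicle wells; lower values mean less growth of the strain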; details: S. cerevisiae deletion strains, growth OD, locus YEL061C, strain CIN8
The whole screen tested about 5,500 compounds, of which about 2,000 (36%) were called active. About 18% were inconclusive and are not listed. Cut-off read from the data, not from the text of the source: active = normalized growth mostly below about 0.91 (no sharp cut-off); inconclusive = no clear call, values can overlap the other calls; inactive = mostly above about 0.92. Some of the results follow.
Reply using exactly one outcome from active, inactive

compound: CCCCNC(=O)NCCSCc1ccco1
answer-label: inactive

Returns: the outcome recorded for COC(=O)[C@]1(C)CC[C@]2(C)CC[C@]3(C)C4=CCc5c(cc(O)c(O)c5C)[C@]4(C)CC[C@@]3(C)C2C1 (some centres not stated) in this assay.
inactive

Next: "NC(=NS(=O)(=O)c1cc(C(F)(F)F)cc(C(F)(F)F)c1)c1cccs1"
inactive

Lookup "NCCNC(=O)c1ccc(Cl)cc1"
inactive

Then this compound: CC(=O)OCC1(C)CCC2(C)CCC3(C)C4=CCc5c(cc(OC(C)=O)c(OC(C)=O)c5C)C4(C)CCC3(C)C2C1 (configuration not stated)
inactive

Similarly, Cc1c(O)c(O)cc2c1CC=C1[C@@]2(C)CC[C@@]2(C)C3C[C@](C)(C(=O)O)CC[C@]3(C)CC[C@]12C (some centres not stated) ?
active

Can you handle "O=C(O)CF" next?
inactive

// same read-out, input: "O[N+]1=CC=CCC1=S.On1ccccc1=S.[Zn]"
active

Cool, now "CC(C)N(Cc1ccc(N(C)C)cc1)S(=O)(=O)c1cc(Cl)c(Cl)cc1Cl"
inactive

Next record, please: "C=C[C@](C)(O)CCC=C(C)C"
inactive

Entry "O=C(NCCSCc1ccco1)c1ccc(Cl)cc1" please
inactive

// same read-out, input: "CN/C(=C\[N+](=O)[O-])NCCSCc1ccc(CN(C)C)o1"
inactive
